system: intestinal mucosa biopsies from the inflamed regions of the colon; assay: Human biopsy assay (intestinal mucosa biopsies of ulcerative colitis patients); assay type: cell-based; details: 1 μg/ml, 24 hours, biopsies of UC patients, DMSO control = 100%
test-readout: IL-8 release (%)
Write the number in % without appending the unit.

Please review the entries below; each comes with its answer.
Record summary for `COCCOCCOCCOc1cc(Nc2cc(Oc3ccc(NC(=O)Nc4cc(C(C)(C)C)nn4-c4ccc(C)cc4)c4ccccc34)ccn2)cc(OC)c1` : reported IL-8 release = 3

Record summary for `COCCOCCOCCOc1cc(Nc2nccc(Oc3ccc(NC(=O)Nc4cc(C(C)(C)C)nn4-c4ccc(OC)cc4)c4ccccc34)n2)cc(OC)c1` : reported IL-8 release = 2

Record summary for `COCCOCCOCCOCCOCCOCCOCCOc1cc(Nc2nccc(Oc3ccc(NC(=O)Nc4cc(C(C)(C)C)nn4-c4ccc(C)cc4)c4ccccc34)n2)cc(OC)c1` : reported IL-8 release = 2

Record summary for `COc1cc(Nc2nccc(Oc3ccc(NC(=O)Nc4cc(C(C)(C)C)nn4-c4ccc(C)cc4)c4ccccc34)n2)cc(S(=O)(=O)C2CC2)c1` : reported IL-8 release = 26

Let us move to another entry and its IL-8 release.
Record summary for `COCCOCCOCCOc1cc(Nc2nccc(Oc3ccc(NC(=O)Nc4cc(C(C)C)nn4-c4ccc(C)cc4)c4ccccc34)n2)cc(OC)c1` : reported IL-8 release = 3
